- protocol_text: Displacement of [131I]-[D-Ala2,4'-I-Phe8]alpha-Neoendorphin from opioid receptor in CD-1 mouse brain after 90 mins by competitive binding assay
- Type: tissue-based
pKi: −log10 of the molar value. Peptide text beside a SMILES is read from it.
// reported pKi for each item listed
assay_readout: pKi

molecule: CC(C)C[C@H](NC(=O)[C@H](Cc1ccccc1)NC(=O)CNC(=O)CNC(=O)[C@@H](N)Cc1ccc(O)cc1)C(=O)N[C@@H](CCCNC(=N)N)C(=O)N[C@@H](CCCCN)C(=O)N[C@@H](Cc1ccc(O)cc1)C(=O)N1CCC[C@H]1C(=O)N[C@@H](CCCCN)C(=O)O (H-YGGFLRKYPK-OH)
assay_readout: pKi
observed: 8.01
--
molecule: C[C@@H](NC(=O)[C@@H](N)Cc1ccc(O)cc1)C(=O)NCC(=O)N(C)[C@@H](Cc1ccccc1)C(=O)NCCO
assay_readout: pKi
observed: 8.85
--
molecule: CC(C)C[C@H](NC(=O)[C@H](Cc1ccccc1)NC(=O)CNC(=O)CNC(=O)[C@@H](N)Cc1ccc(O)cc1)C(=O)N[C@@H](CCCNC(=N)N)C(=O)N[C@@H](CCCNC(=N)N)C(=O)N[C@@H](CCC(N)=O)C(=O)N[C@@H](Cc1ccccc1)C(=O)N[C@@H](CCCCN)C(=O)N[C@H](C(=O)N[C@H](C(=O)N[C@H](C(=O)O)[C@@H](C)O)C(C)C)C(C)C
assay_readout: pKi
observed: 8.17
--
molecule: CC[C@H](C)[C@H](NC(=O)[C@H](CCCNC(=N)N)NC(=O)[C@H](CCCNC(=N)N)NC(=O)[C@H](CC(C)C)NC(=O)[C@H](Cc1ccccc1)NC(=O)CNC(=O)CNC(=O)[C@@H](N)Cc1ccc(O)cc1)C(=O)N[C@@H](CCCNC(=N)N)C(=O)N1CCC[C@H]1C(=O)N[C@@H](CCCCN)C(=O)N[C@@H](CC(C)C)C(=O)N[C@@H](CCCCN)C(=O)N[C@@H](Cc1c[nH]c2ccccc12)C(=O)N[C@@H](CC(=O)O)C(=O)N[C@@H](CC(N)=O)C(=O)N[C@@H](CCC(N)=O)C(=O)O
assay_readout: pKi
observed: 8.26
